Molecular target: Serotonin 3 (5-HT3) receptor (Rattus norvegicus) (UniProt P35563+Q9JJ16)
Assay: Inhibition of 5-HT-induced bradycardia by 5-hydroxytryptamine 3+
Format: functional
result-type: ED50
Include the unit after the number when you answer.

> print(dat)
                                   compound                              study.target  measured.result
1  Cc1nccn1CC1CCc2c(c3ccccc3n2C)C1=O (configuration not stated)  Serotonin 3 (5-HT3) receptor (Rattus norvegicus) (UniProt P35563+Q9JJ16)        3.3 µg/kg

Report ED50 for every entry below.
1. CN1[C@@H]2CC[C@H]1C[C@@H](OC(=O)c1c[nH]c3ccccc13)C2
2. CC1Cc2cc(Cl)cc(C(=O)NC3CC4CCC(C3)N4C)c2O1 (configuration not stated)
3. CC1Cc2cc(Cl)cc(C(=O)OC3CC4CCC(C3)N4C)c2O1 (configuration not stated)
4. CN1[C@@H]2CC[C@H]1C[C@@H](OC(=O)c1cc(Cl)cc3c1OC(C)(C)C3)C2
5. Cc1cc2c(c(C(=O)OC3CC4CCC(C3)N4C)c1)OC(C)C2 (configuration not stated)
6. CN1[C@@H]2CC[C@H]1C[C@@H](NC(=O)c1cc(Cl)cc3c1OC(C)(C)C3)C2 (stereo in doubt)

A)
1. 3.1 µg/kg
2. 1 µg/kg
3. 4.2 µg/kg
4. 4.6 µg/kg
5. 12.6 µg/kg
6. 0.9 µg/kg
